Where do the numbers come from? From patent US20200079833A1.

testedSystem: glucagon receptor (GCGR) (human, UniProt P47871 26-477)
Sequence (P47871 26-477): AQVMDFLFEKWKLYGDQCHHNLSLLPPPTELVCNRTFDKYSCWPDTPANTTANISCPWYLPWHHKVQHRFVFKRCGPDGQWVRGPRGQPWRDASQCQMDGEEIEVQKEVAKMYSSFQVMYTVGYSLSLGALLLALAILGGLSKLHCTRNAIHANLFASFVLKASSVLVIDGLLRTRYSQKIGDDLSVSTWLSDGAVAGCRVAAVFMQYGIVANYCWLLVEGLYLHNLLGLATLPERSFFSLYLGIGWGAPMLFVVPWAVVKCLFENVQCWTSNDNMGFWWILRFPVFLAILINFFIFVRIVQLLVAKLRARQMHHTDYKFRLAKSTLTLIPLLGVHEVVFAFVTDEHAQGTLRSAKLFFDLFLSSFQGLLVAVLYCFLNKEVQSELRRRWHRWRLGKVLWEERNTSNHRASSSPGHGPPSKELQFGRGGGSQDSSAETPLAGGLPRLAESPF
testDetails: cell-based or functional assay
Starred links: 1 amine or outer side, 2 acyl side, 3 side chain; linkers in the order of their positions; H or OH if unused. Non-standard residues stand in square brackets, D forms with d. Groups on a side chain read outwards from the residue. Primed or numbered codes have the meaning given here. No end group written: not given here. *: point of attachment. Dodecanoyl(12-OPh(4-COOH)) = O=C(O)c1ccc(OCCCCCCCCCCCC(=O)*)cc1; γGlu = O=C(O)[C@H](CCC(=O)[*:2])N[*:1]; Stearoyl = CCCCCCCCCCCCCCCCCC(=O)*; Palmitoyl = CCCCCCCCCCCCCCCC(=O)*; αMeF = C[C@](N)(Cc1ccccc1)C(=O)O; αMeK = C[C@](N)(CCCCN)C(=O)O; Lauroyl = CCCCCCCCCCCC(=O)*; αMeS = C[C@](N)(CO)C(=O)O; PEG2′ = not defined here; Aib = CC(C)(N)C(=O)O

binder	cAMP Primary assay EC50 Gluc-R
H[Aib]K([PEG2′-PEG2′-γGlu-Stearoyl])GS[αMeF]TSDV[αMeS]S[αMeF]LEGEAA[αMeK]E[αMeF]IA[αMeF]VV[αMeK]GG-NH2 [SEQ ID NO 126]	25 nM
H[Aib]EGS[αMeF]TSDV[αMeS]S[αMeF]LEGEAAK([PEG2′-PEG2′-Lauroyl])E[αMeF]IA[αMeF]VV[αMeK]GG-NH2 [SEQ ID NO 135]	27 nM
H[Aib]EGS[αMeF]TSDV[αMeS]S[αMeF]LEK([PEG2′-PEG2′-γGlu-Stearoyl])EAA[αMeK]E[αMeF]IA[αMeF]VV[αMeK]GG-NH2 [SEQ ID NO 113]	25 nM
H[Aib]EGS[αMeF]TSDV[αMeS]S[αMeF]LK([PEG2′-PEG2′-γGlu-Stearoyl])GEAA[αMeK]E[αMeF]IA[αMeF]VV[αMeK]GG-NH2 [SEQ ID NO 114]	25 nM
HK([PEG2′-PEG2′-γGlu-Stearoyl])EGS[αMeF]TSDV[αMeS]S[αMeF]LEGEAA[αMeK]E[αMeF]IA[αMeF]VV[αMeK]GG-NH2 [SEQ ID NO 127]	25 nM
H[Aib]EGS[αMeF]TSDV[αMeS]S[αMeF]LEGEAAK([PEG2′-Lauroyl])E[αMeF]IA[αMeF]VV[αMeK]GG-NH2 [SEQ ID NO 134]	28 nM
H[Aib]EGK([PEG2′-PEG2′-γGlu-Stearoyl])[αMeF]TSDV[αMeS]S[αMeF]LEGEAA[αMeK]E[αMeF]IA[αMeF]VV[αMeK]GG-NH2 [SEQ ID NO 124]	25 nM
H[Aib]EGS[αMeF]TSDV[αMeS]S[αMeF]LEGEK([PEG2′-PEG2′-γGlu-Stearoyl])A[αMeK]E[αMeF]IA[αMeF]VV[αMeK]GG-NH2 [SEQ ID NO 111]	25 nM
HK([γGlu-Palmitoyl])EGS[αMeF]TSDV[αMeS]S[αMeF]LEGEAA[αMeK]E[αMeF]IA[αMeF]VV[αMeK]GG-NH2 [SEQ ID NO 98]	28 nM
H[Aib]EGS[αMeF]TSDV[αMeS]S[αMeF]K([PEG2′-PEG2′-γGlu-Stearoyl])EGEAA[αMeK]E[αMeF]IA[αMeF]VV[αMeK]GG-NH2 [SEQ ID NO 115]	25 nM
H[Aib]EGS[αMeF]TSDV[αMeS]S[αMeF]LEGEAAK([PEG2′-Dodecanoyl(12-OPh(4-COOH))])E[αMeF]IA[αMeF]VV[αMeK]GG-NH2 [SEQ ID NO 143]	27 nM
H[Aib]EGS[αMeF]TSDV[αMeS]S[αMeF]LEGEAK([PEG2′-PEG2′-γGlu-Stearoyl])[αMeK]E[αMeF]IA[αMeF]VV[αMeK]GG-NH2 [SEQ ID NO 110]	25 nM
H[Aib]EGS[αMeF]TSDV[αMeS]S[αMeF]LEGEAAK([PEG2′-PEG2′-γGlu-Palmitoyl])E[αMeF]IA[αMeF]VV[αMeK]GG-NH2 [SEQ ID NO 109]	26 nM
H[Aib]EGSK([PEG2′-PEG2′-γGlu-Stearoyl])TSDV[αMeS]S[αMeF]LEGEAA[αMeK]E[αMeF]IA[αMeF]VV[αMeK]GG-NH2 [SEQ ID NO 123]	26 nM
H[Aib]EGS[αMeF]K([PEG2′-PEG2′-γGlu-Stearoyl])SDV[αMeS]S[αMeF]LEGEAA[αMeK]E[αMeF]IA[αMeF]VV[αMeK]GG-NH2 [SEQ ID NO 122]	25 nM
H[Aib]EGS[αMeF]TSDV[αMeS]S[αMeF]LEGEAA[αMeK]E[αMeF]IA[αMeF]VVK([PEG2′-PEG2′-γGlu-Stearoyl])GG-NH2 [SEQ ID NO 101]	25 nM
H[Aib]EGS[αMeF]TSDV[αMeS]K([PEG2′-PEG2′-γGlu-Stearoyl])[αMeF]LEGEAA[αMeK]E[αMeF]IA[αMeF]VV[αMeK]GG-NH2 [SEQ ID NO 117]	25 nM
